Recorded fraction ligated values for a group of variants are listed next.
B1: F1*; the commonest letter at each place (parent)
chain: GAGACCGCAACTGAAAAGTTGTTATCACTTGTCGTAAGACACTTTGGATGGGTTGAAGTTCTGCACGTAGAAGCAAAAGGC

- Variants of: B1
- assay.notes: fraction ligated after 30 min (ligated reads / total reads); higher = more ligase activity
- condition.context: with F1*sub RNA substrate (template-directed ligation), 42 °C

GAGACCGCAACTGAAAAGTTGTTATCACTTCGCGTAAGACACTTTGGATGGGTTGAAGTTCTGCACGTAGAAGCAAAAGGC: 0.78
GAGACCGCAACTGAAAAGTTGTTATCCCTTGTCGTAAGACAATTTGGATGGGTTGAAGTTCTGCACGTAGAAGCAAAAGGC: 0.818

Proceeding to the next variant to report its fraction ligated.
Tell us which fraction ligated value is on record for GAGACCGCAACTGAAAAGTTGTTATCACTTGTCGTAAGATACTTTAGATGGGTTGAAGTTCTGCACGTAGAAGCAAAAGGC
0.809
